B1: library; numbered along this chain (parent)
chain: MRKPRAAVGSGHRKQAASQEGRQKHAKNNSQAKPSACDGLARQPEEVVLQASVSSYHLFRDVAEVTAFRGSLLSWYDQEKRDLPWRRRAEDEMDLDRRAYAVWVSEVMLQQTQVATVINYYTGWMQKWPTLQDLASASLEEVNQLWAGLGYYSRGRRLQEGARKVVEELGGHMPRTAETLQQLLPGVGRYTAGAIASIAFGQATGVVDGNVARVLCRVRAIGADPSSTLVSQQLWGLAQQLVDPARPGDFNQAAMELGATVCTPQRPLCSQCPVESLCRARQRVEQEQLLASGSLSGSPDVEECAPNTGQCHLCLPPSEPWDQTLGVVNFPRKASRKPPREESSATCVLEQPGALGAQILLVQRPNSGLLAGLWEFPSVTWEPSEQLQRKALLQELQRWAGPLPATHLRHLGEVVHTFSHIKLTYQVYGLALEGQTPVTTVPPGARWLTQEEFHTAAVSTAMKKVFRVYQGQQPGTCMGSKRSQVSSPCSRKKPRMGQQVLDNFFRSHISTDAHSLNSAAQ

Variants of: B1
protocolDetails: 8OG:A repair function score (normalized; synonymous = 0, nonsense = -1) (normalized log-likelihood score); higher = more repair activity (WT-like);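 further: cells sorted at 72 h after reporter transfection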
cond: with 8OG:A DNA repair reporter (GFP) in HEK-293 MUTYH KO cells
measureName: 8OG:A repair function score

Consider the following items and state reported 8OG:A repair function score for each.
1. E302Q
2. P44V
3. K337R

1: -0.207; 2: -0.0774; 3: 0.000179

// input: 5 variants below; output: 8OG:A repair function score for each
1. A391K
2. N329A
3. A67E
4. A192E
5. A99C

[-0.22, -0.161, -0.0141, -0.908, -0.408]

// for each variant in input: emit 8OG:A repair function score
1. W146M
2. L369R

1. -0.182
2. 0.0308

8OG:A repair function score for A280C ?
-0.398

Recorded values, source the supplement of paper PMC11908140.
